Provenance of the data: the Human Domainome abundance scans (Beltran et al. 2025)

B1: Homeobox protein cut-like 2, residues 895 to 963; numbered along this chain, O14529 (parent)
chain: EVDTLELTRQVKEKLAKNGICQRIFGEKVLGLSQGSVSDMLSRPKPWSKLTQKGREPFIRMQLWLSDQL

Variants of: B1
experiment: abundance fitness (aPCA) (normalised: wild type 0, dead -1); higher = more abundant; growth selection in yeast, the domain comes from the species named
cond: Homo sapiens
# binarize abundance fitness: threshold -0.1 inclusive, high side satisfied, low side not satisfied

Request: # bool: abundance fitness of EVDTLELTRQVKEKLAKNGICQWIFGEKVLGLSQGSVSDMLSRPKPWSKLTQKGREPFIRMQLWLSDQL >= -0.1
Response: not satisfied

Request: Say whether EVDTLELTRQVKEKLAKNGICQRNFGEKVLGLSQGSVSDMLSRPKPWSKLTQKGREPFIRMQLWLSDQL shows abundance fitness of -0.1 or more.
Response: not satisfied

Request: Identify whether the reported abundance fitness of the following variant is -0.1 or greater: EVDTLELTRQVKEKLAKNGICQRIFGEKVLGLSQGSVSDMLSWPKPWSKLTQKGREPFIRMQLWLSDQL
Response: not satisfied

Request: Quick check, abundance fitness >= -0.1? EVDTDELTRQVKEKLAKNGICQRIFGEKVLGLSQGSVSDMLSRPKPWSKLTQKGREPFIRMQLWLSDQL
Response: not satisfied

Request: Can EVDTLELTRQVKEKLAKNGICQRIFGEKVLGLSQGSVSDMLSRPKPWSKLTQKHREPFIRMQLWLSDQL be said to have abundance fitness at or above -0.1?
Response: not satisfied

Request: Decide: abundance fitness of EVDTLELTRQVKEKLAKNGICQRIFGEKVLGTSQGSVSDMLSRPKPWSKLTQKGREPFIRMQLWLSDQL >= -0.1?
Response: not satisfied

Request: Is the recorded value of abundance fitness equal to or greater than -0.1 for this variant? EVDTLELTRQVKEKLAKNGICQRIFGEKVLGLSQGSVSDMLSRPKPWSKLTQWGREPFIRMQLWLSDQL
Response: not satisfied

Request: Does the variant EVDTLELTRQVKEKLAKNGICQRIFGEKVLGLSQGSVSDMLSRPKPWSKLTQKGREPFIRMQLMLSDQL have recorded abundance fitness that is -0.1 or more?
Response: not satisfied

Request: Check the entry EVDTLELTRQVKEKLAKNGICQRIFGEKVLGLSQGSVSDMLSRPKPWSKITQKGREPFIRMQLWLSDQL : does abundance fitness equal or exceed -0.1?
Response: not satisfied

Request: Check the entry EVDTLELTRQVKEKLAKNGICQRIFGEKVLGLSQGFVSDMLSRPKPWSKLTQKGREPFIRMQLWLSDQL : does abundance fitness equal or exceed -0.1?
Response: satisfied

Request: Answer whether abundance fitness of EVDTLELTRQVKEKLAKNGICQRIFHEKVLGLSQGSVSDMLSRPKPWSKLTQKGREPFIRMQLWLSDQL is greater than or equal to -0.1.
Response: not satisfied

Request: hey, is abundance fitness for this one >= -0.1? EVDTLELTRQVKEKLAKNGICERIFGEKVLGLSQGSVSDMLSRPKPWSKLTQKGREPFIRMQLWLSDQL
Response: satisfied

Request: Item EVDTLELTRQVGEKLAKNGICQRIFGEKVLGLSQGSVSDMLSRPKPWSKLTQKGREPFIRMQLWLSDQL with abundance fitness of -0.1 or above?
Response: not satisfied

Request: Hi team, for EVDTLELTRQVKEKLAKNGGCQRIFGEKVLGLSQGSVSDMLSRPKPWSKLTQKGREPFIRMQLWLSDQL , is the recorded abundance fitness at or above -0.1?
Response: not satisfied

Request: Threshold query (abundance fitness >= -0.1) on EVDTLELTRQVKEKLAKNGICQRIFGEKVLGLSQGSVSDMLSRPKPWSLLTQKGREPFIRMQLWLSDQL
Response: satisfied

Request: Has EVDTLELTRQVVEKLAKNGICQRIFGEKVLGLSQGSVSDMLSRPKPWSKLTQKGREPFIRMQLWLSDQL a recorded abundance fitness greater than or equal to -0.1?
Response: not satisfied

Request: Does EVDTLELTRQVKEKLAKNGICQRIFGEKVLGLSQGGVSDMLSRPKPWSKLTQKGREPFIRMQLWLSDQL have a reported abundance fitness of at least -0.1?
Response: not satisfied

Request: Is the recorded value of abundance fitness equal to or greater than -0.1 for this variant? EVDTLELTRQVKEKLAKNGICQRIFGTKVLGLSQGSVSDMLSRPKPWSKLTQKGREPFIRMQLWLSDQL
Response: not satisfied

Request: Does EVDTLELTRQVKEKLAKNGICQRIFGEKVLGLSQGSVSDMLSRPKPWSKLTQKGREPFIRWQLWLSDQL have a reported abundance fitness of at least -0.1?
Response: not satisfied

Request: abundance fitness >= -0.1 for EVDTFELTRQVKEKLAKNGICQRIFGEKVLGLSQGSVSDMLSRPKPWSKLTQKGREPFIRMQLWLSDQL ?
Response: satisfied

Request: Could you please find out whether EVDTLELTRQVKEKLAKNGICQRIFGEKVLGLSQGSVSDMLSRPKPWSKLTQKLREPFIRMQLWLSDQL has abundance fitness that meets -0.1 or exceeds it?
Response: satisfied

Request: Please check the record EVDTLELTRQVKEKLAKNGICQRIFGEKVLGLSQGSVSDMLSRPKPWSKLTQKGREPFIYMQLWLSDQL and state if its abundance fitness is at or above -0.1.
Response: not satisfied

Request: Does EVDTLELTRQVKEKLAKNGICQRIFGEKVLGLSQGSVSDMLSRPQPWSKLTQKGREPFIRMQLWLSDQL have a reported abundance fitness of at least -0.1?
Response: not satisfied

Request: Form field: abundance fitness at least -0.1? Entry: EVDTLELTRQVKEKLAKNGICQRIFGEKVLGLSQGSVSDMLSRPKPWSKLTHKGREPFIRMQLWLSDQL
Response: not satisfied

Request: Does the reported abundance fitness for EVDTLELTRQVKMKLAKNGICQRIFGEKVLGLSQGSVSDMLSRPKPWSKLTQKGREPFIRMQLWLSDQL fall at or above the -0.1 mark?
Response: satisfied

Request: I'd appreciate it if you could say whether EVKTLELTRQVKEKLAKNGICQRIFGEKVLGLSQGSVSDMLSRPKPWSKLTQKGREPFIRMQLWLSDQL has abundance fitness at least equal to -0.1.
Response: not satisfied

Request: For this variant, is measured abundance fitness -0.1 or higher? EVDTLELTRQVKEKLAKNGSCQRIFGEKVLGLSQGSVSDMLSRPKPWSKLTQKGREPFIRMQLWLSDQL
Response: not satisfied

Request: Could you tell me if the measured abundance fitness of EVDTLELTRQVKEKLAKNGICQRIFGEKVLGLSQGSVSDMLSRPKPWSKLTQKGLEPFIRMQLWLSDQL reaches -0.1 or more?
Response: not satisfied

Request: Would you say EVDTLELTRQVKEKLAKNGICQRIFGEKVLGLSQGSVSDMLSRPKPWSKLTQKGREPFIRMILWLSDQL shows abundance fitness at minimum -0.1?
Response: not satisfied

Request: Reported abundance fitness reaches at least -0.1 for EVDTLELTRQVKEKLAKNGICQRIFGEKVLGLSQPSVSDMLSRPKPWSKLTQKGREPFIRMQLWLSDQL ?
Response: satisfied

Request: Identify whether the reported abundance fitness of the following variant is -0.1 or greater: EVDTLELTRQVKEKLAKNGICQRIFGEKVLGLSQGSVSDMLSRPKPWSKLTQKGDEPFIRMQLWLSDQL
Response: not satisfied

Request: State whether the measured abundance fitness reaches -0.1, counting equality as reaching it, for EVDVLELTRQVKEKLAKNGICQRIFGEKVLGLSQGSVSDMLSRPKPWSKLTQKGREPFIRMQLWLSDQL
Response: not satisfied

Request: Determine whether measured abundance fitness meets or exceeds -0.1 for EKDTLELTRQVKEKLAKNGICQRIFGEKVLGLSQGSVSDMLSRPKPWSKLTQKGREPFIRMQLWLSDQL
Response: satisfied

Request: Quick check, abundance fitness >= -0.1? EVDTLELTRQVKEKLAKNGICQRIFGEKVLGLSQGSVSDMLSRPRPWSKLTQKGREPFIRMQLWLSDQL
Response: satisfied

Request: Kindly determine if abundance fitness recorded for EVDTLELTRQVKEKLAKNGICQRIFGEKVLGLSQGSVSDMLSRPKPWSKLTQKWREPFIRMQLWLSDQL is above or exactly -0.1.
Response: satisfied

Request: Reported abundance fitness reaches at least -0.1 for EVDTLELTRQVKEKLAKNGIPQRIFGEKVLGLSQGSVSDMLSRPKPWSKLTQKGREPFIRMQLWLSDQL ?
Response: satisfied

Request: Determine whether this variant has abundance fitness no lower than -0.1: EVDTLELTRQVKEKLAKNGICQRIFGEKVLGLSQGSVSDMLQRPKPWSKLTQKGREPFIRMQLWLSDQL
Response: satisfied

Request: Test whether the variant EVDTLELTRQVKEKLAKLGICQRIFGEKVLGLSQGSVSDMLSRPKPWSKLTQKGREPFIRMQLWLSDQL records abundance fitness of -0.1 or higher.
Response: satisfied

Request: Can EVDTLELTRQVKEKLAKNGICQQIFGEKVLGLSQGSVSDMLSRPKPWSKLTQKGREPFIRMQLWLSDQL be said to have abundance fitness at or above -0.1?
Response: satisfied

Request: Hello, I need to know if EVDTLELTRQMKEKLAKNGICQRIFGEKVLGLSQGSVSDMLSRPKPWSKLTQKGREPFIRMQLWLSDQL has measured abundance fitness not below -0.1. Thanks!
Response: not satisfied

Request: API: above_or_equal(metric=abundance fitness, cutoff=-0.1) for item EVDTLELTRQVKEKLAKNGICQRIFGEKVLGLSQGSVRDMLSRPKPWSKLTQKGREPFIRMQLWLSDQL
Response: satisfied

Request: Is abundance fitness for EVDTLELTRQVKEKLAKNGICQRIFGEKVLGLSQGSVSDTLSRPKPWSKLTQKGREPFIRMQLWLSDQL at or above -0.1?
Response: not satisfied

Request: Does EVDTLELTRQVKEKLAKNGICQRIFGEKVLGLSQGSVSDMLSRPKPWSKLTQKGREKFIRMQLWLSDQL have a reported abundance fitness of at least -0.1?
Response: satisfied

Request: Textbook exercise: given the entry EVDTLELTRQVKEKLAHNGICQRIFGEKVLGLSQGSVSDMLSRPKPWSKLTQKGREPFIRMQLWLSDQL , state whether its abundance fitness is greater than or equal to -0.1.
Response: not satisfied

Request: Answer whether abundance fitness of EVDTLELTRQVKEKLAKNGICKRIFGEKVLGLSQGSVSDMLSRPKPWSKLTQKGREPFIRMQLWLSDQL is greater than or equal to -0.1.
Response: satisfied
